System: HepG2
Test: cytotoxicity call (relative viability < 0.9)
Settings: 10 µM
Screen size: about 39,000 compounds; about 3,300 (8.5%) were called active. The sample as a whole holds a higher share of actives than the screen did.
Write down one outcome, taken from active, inactive

Reference set (4 entries):
COc1ccc(S(=O)(=O)Nc2ccc3c(c2)C(=O)N([C@H](C)CO)C[C@@H](C)[C@H](CN(C)C(=O)NC2CCCCC2)OCCCC[C@H](C)O3)cc1	inactive
COc1ccc2c3c([nH]c2c1)[C@@H](CO)N(C[C@]13CN(Cc2nccs2)C1)S(=O)(=O)c1ccc(cc1)C	inactive
COCC#Cc1cnc2c(c1)C(=O)N([C@H](C)CO)C[C@H](C)[C@@H](CN(C)S(=O)(=O)c1cccc(OC)c1)O2	inactive
O=C1CN(S(=O)(=O)Cc2ccccc2)C[C@H]2[C@H](c3ccc(C#Cc4cccc(F)c4)cc3)[C@H](CO)N12	active

// query Called result for `COc1ccc(NC(=O)N(C)C[C@H]2OCCCC[C@H](C)Oc3ccc(NC(=O)Nc4cccc5ccccc45)cc3C(=O)N([C@@H](C)CO)C[C@H]2C)cc1`
// result inactive

// query Okay, and `O=C(/C=C/c1cc2c(cc1Br)OCCO2)c1c(-c2ccccc2)c2cc(Cl)ccc2[nH]c1=O` ?
// result active

// query Okay, and `Cc1noc(C)c1NC(=O)N[C@@H]1C=C[C@@H](CC(=O)NCCCN(C)C)O[C@H]1CO` ?
// result inactive

// query Okay, and `Cc1cc(C(=O)Nc2cccc3c2O[C@@H](CN(C)S(=O)(=O)c2ccc(Cl)cc2)[C@@H](C)CN([C@@H](C)CO)C3=O)n(C)n1` ?
// result inactive

// query Okay, and `C=C[C@](C)(O)CCC=C(C)C` ?
// result inactive
